Target: T1, His-tagged mouse CD38 (ACRO Biosystems #CD8-M5223) (mouse, UniProt P56528 45-304)
T1 construct: bought recombinant protein with His tag; also called Murine
T1 sequence (looked up): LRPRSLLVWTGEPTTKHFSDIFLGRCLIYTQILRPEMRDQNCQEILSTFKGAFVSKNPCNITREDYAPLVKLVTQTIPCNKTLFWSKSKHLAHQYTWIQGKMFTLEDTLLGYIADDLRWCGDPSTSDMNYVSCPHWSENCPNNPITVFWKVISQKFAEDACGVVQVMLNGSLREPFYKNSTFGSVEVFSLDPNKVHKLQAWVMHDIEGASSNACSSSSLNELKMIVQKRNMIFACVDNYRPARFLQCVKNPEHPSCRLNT
Test: ELISA, coated His-CD38
property_name: ELISA 1 ug/ml

40566p1.D2 (scFv, V domains shown, tested as scFv-Fc supernatant) VH: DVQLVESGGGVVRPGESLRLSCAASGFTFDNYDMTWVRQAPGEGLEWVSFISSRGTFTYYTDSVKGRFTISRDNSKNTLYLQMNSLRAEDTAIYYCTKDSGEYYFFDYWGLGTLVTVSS VL: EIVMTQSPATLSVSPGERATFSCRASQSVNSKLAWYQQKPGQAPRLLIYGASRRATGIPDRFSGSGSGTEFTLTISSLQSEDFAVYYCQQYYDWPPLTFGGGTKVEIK = 1.74
40596p1.G10 (scFv, V domains shown, tested as scFv-Fc supernatant) VH: EVQLLESGGGLVQPGGSLRLSCAAPGFDFSKNAMSWVRQAPGKGLEYVAGSGWSGSFIFYADSVKGRFTVSRDNSENTLYLQMSSLRAEDTAVYYCAKNPGFGEMDVWGQGTTVTVSS VL: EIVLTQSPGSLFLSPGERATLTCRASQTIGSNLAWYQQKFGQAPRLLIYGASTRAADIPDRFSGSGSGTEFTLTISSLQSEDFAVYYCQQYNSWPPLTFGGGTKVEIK = 1.74

Which value of ELISA 1 ug/ml has been reported for 40769p1.1.B10 (scFv, V domains shown, tested as scFv-Fc supernatant) VH: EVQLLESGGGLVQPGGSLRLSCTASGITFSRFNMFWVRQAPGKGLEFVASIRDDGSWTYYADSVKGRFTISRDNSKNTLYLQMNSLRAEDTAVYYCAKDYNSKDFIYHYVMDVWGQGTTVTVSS VL: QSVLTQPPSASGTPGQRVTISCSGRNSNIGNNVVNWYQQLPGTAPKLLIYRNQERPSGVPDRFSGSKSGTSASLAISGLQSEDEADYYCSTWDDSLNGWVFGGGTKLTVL in the records?
0.049

Repeat for the following binder: 40596p1.F6 (scFv, V domains shown, tested as scFv-Fc supernatant) VH: EVQLLESGGGLVQPGGSLRLSCAASGFDFSKNAMSWVRQAPGKGLEYVAGSGWSGSFIFYADSVKGRFTVSRDNSENTLYLQMSSLRAEDTAVYYCAKNPGFGEMDVWGQGTTVTVSS VL: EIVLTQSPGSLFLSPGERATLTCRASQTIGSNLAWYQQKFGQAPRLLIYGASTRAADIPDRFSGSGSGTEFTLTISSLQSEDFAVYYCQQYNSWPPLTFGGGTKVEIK
1.9

What about 40769p1.1.H3 (scFv, V domains shown) VH: EVQLLESGGGLVQPGGSLRLSCAASGFAFNDYLMSWVRQAPGKGLEWVSTISWSGGSTYYADSVKGRFTISRDNSKNTLYLQMNSLRAEDTALYYCARDRYRYNYYYFMDVWGQGTTVTV VL: QSVLTQPPSASGTPGQRVTISCSGSTSDSPYDRIDWYQQLPGTAPKLLIYKDDQRPSGVPDRFSGSKSGTSASLAISGLQSEDEADYYCATWDAMLSAWVFGGGTKLTVL ?
0.049
